Values from patent US5436229A

tgt: Human plasmin (Homo sapiens)
Construct: Human plasmin is purchased from Boehringer Mannheim; purchased Boehringer Mannheim, Indianapolis, Ind
Sequence (P00747 581-810 limits assumed): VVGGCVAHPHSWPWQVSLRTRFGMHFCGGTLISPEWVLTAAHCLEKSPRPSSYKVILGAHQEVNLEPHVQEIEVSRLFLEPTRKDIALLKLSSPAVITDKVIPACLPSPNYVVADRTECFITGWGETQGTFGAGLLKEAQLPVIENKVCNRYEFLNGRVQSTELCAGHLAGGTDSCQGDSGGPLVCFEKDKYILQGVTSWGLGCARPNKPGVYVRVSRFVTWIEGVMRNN
Sequence (P00747 97-580 partner limits assumed): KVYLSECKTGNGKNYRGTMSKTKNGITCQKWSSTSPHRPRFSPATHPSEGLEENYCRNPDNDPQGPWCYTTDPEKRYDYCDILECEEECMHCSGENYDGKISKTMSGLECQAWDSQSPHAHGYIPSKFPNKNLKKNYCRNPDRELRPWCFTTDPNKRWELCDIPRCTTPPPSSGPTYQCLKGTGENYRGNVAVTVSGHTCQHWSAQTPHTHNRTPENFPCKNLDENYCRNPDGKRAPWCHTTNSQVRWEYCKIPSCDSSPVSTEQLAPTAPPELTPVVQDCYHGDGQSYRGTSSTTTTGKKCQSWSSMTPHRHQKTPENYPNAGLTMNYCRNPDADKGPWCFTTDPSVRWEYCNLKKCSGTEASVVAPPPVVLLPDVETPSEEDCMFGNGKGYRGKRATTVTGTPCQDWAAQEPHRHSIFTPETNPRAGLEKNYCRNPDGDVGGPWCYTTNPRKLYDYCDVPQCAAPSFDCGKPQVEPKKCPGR
experimental_protocol: Serine protease inhibition (Kass), plasmin
Assay type: biochemical
Non-standard residues stand in square brackets, D forms with d. Residues, ends and D or L forms follow the SMILES beside them. dCha = N[C@H](CC1CCCCC1)C(=O)O
Documented Kass Plasmin across a set of compounds

>  <compound>
Cl.Cl.N=C(N)NCCC[C@@H](C=O)NC(=O)[C@@H]1CCCN1C(=O)[C@@]1(Cc2ccccc2)CCCN1.O.O

>  <Kass Plasmin / L/mol × 10^6>
0.31

$$$$
>  <compound>
CN[C@@H](C(=O)N1CCC[C@H]1C(=O)N[C@@H](CCCNC(=N)N)C(O)S(=O)(=O)[O-])c1ccccc1.O=S(=O)(O)O.[Na+] (some centres unmarked)

>  <Kass Plasmin / L/mol × 10^6>
1.8

$$$$
>  <compound>
Cl.N=C(N)NCCC[C@@H](C=O)NC(=O)[C@@H]1CCCN1C(=O)[C@@H](Cc1ccccc1)NCC1CCCCC1

>  <Kass Plasmin / L/mol × 10^6>
0.49

$$$$
>  <compound>
CS(=O)(=O)N[C@H](Cc1ccccc1)C(=O)N1CCC[C@H]1C(=O)N[C@H](C=O)CCCNC(=N)N.Cl

>  <Kass Plasmin / L/mol × 10^6>
17

$$$$
>  <compound>
CCOC(=O)NC(CC)(Cc1ccccc1)C(=O)N1CCC[C@H]1C(=O)N[C@H](C=O)CCCNC(=N)N.Cl (some centres unmarked)

>  <Kass Plasmin / L/mol × 10^6>
0.058

$$$$
>  <compound>
CCS(=O)(=O)N[C@@H](C(=O)N1CCC[C@H]1C(=O)N[C@H](C=O)CCCNC(=N)N)C1CCCCC1.Cl

>  <Kass Plasmin / L/mol × 10^6>
13

$$$$
>  <compound>
Cl.N=C(N)NCCC[C@@H](C=O)NC(=O)[C@@H]1CCCN1C(=O)[C@@H](Cc1ccccc1)NC(=O)Cc1ccccc1

>  <Kass Plasmin / L/mol × 10^6>
0.54

$$$$
>  <compound>
Cl.N=C(N)NCCC[C@@H](C=O)NC(=O)[C@@H]1CCCN1C(=O)[C@@H](Cc1ccccc1)NC(=O)Cc1cccnc1

>  <Kass Plasmin / L/mol × 10^6>
0.27

$$$$
>  <compound>
CCOC(=O)N[C@H](CC1CCCCC1)C(=O)N1CCC[C@H]1C(=O)N[C@H](C=O)CCCNC(=N)N.Cl

>  <Kass Plasmin / L/mol × 10^6>
26

$$$$
>  <compound>
Cl.Cn1c(C(=O)N[C@H](CC2CCCCC2)C(=O)N2CCC[C@H]2C(=O)N[C@H](C=O)CCCNC(=N)N)cc2ccccc21

>  <Kass Plasmin / L/mol × 10^6>
25

$$$$
>  <compound>
CCCCC(Cc1ccccc1)(NC(=O)OCC)C(=O)N1CCC[C@H]1C(=O)N[C@H](C=O)CCCNC(=N)N (some centres unmarked)

>  <Kass Plasmin / L/mol × 10^6>
0.13

$$$$
>  <compound>
CCS(=O)(=O)N[C@H](CC1CCCCC1)C(=O)N1CCC[C@H]1C(=O)N[C@H](C=O)CCCNC(=N)N.Cl

>  <Kass Plasmin / L/mol × 10^6>
45

$$$$
>  <compound>
Cl.Cn1c(C(=O)N[C@@](C)(C(=O)N2CC[C@H]2C(=O)N[C@H](C=O)CCCNC(=N)N)c2ccccc2)cc2ccccc21

>  <Kass Plasmin / L/mol × 10^6>
0.55

$$$$
>  <compound>
CCOC(=O)N[C@@H](Cc1ccccc1)C(=O)N1CCC[C@@]1(C)C(=O)N[C@H](C=O)CCCNC(=N)N.Cl

>  <Kass Plasmin / L/mol × 10^6>
0.020

$$$$
>  <compound>
CCCS(=O)(=O)N[C@H](Cc1ccccc1)C(=O)N1CCC[C@H]1C(=O)N[C@H](C=O)CCCNC(=N)N.Cl

>  <Kass Plasmin / L/mol × 10^6>
29

$$$$
>  <compound>
N=C(N)NCCCC(C=O)NC(=O)C1CCCN1C(=O)C1CC2CCCCC2CN1.O=S(=O)(O)O [80 (Step F), D-3-(cis)Piq-Pro-Arg-H.H2 SO4]

>  <Kass Plasmin / L/mol × 10^6>
1.6

$$$$
>  <compound>
CCS(=O)(=O)N[C@H](Cc1ccccc1)C(=O)N1CCC[C@H]1C(=O)N[C@H](C=O)CCCNC(=N)N.Cl

>  <Kass Plasmin / L/mol × 10^6>
31

$$$$
>  <compound>
C[C@@]1(C(=O)N[C@H](C=O)CCCNC(=N)N)CCCN1C(=O)[C@H](Cc1ccccc1)NS(C)(=O)=O.Cl

>  <Kass Plasmin / L/mol × 10^6>
0.031

$$$$
>  <compound>
C[C@@]1(C(=O)N[C@H](C=O)CCCNC(=N)N)CCCN1C(=O)[C@@H](Cc1ccccc1)NS(C)(=O)=O.Cl

>  <Kass Plasmin / L/mol × 10^6>
0.56

$$$$
>  <compound>
Cl.N=C(N)NCCC[C@@H](C=O)NC(=O)[C@@H]1CCCN1C(=O)[C@@H](Cc1ccccc1)NC(=O)c1cc2ccccc2cn1

>  <Kass Plasmin / L/mol × 10^6>
0.55

$$$$
>  <compound>
CCCCS(=O)(=O)N[C@H](Cc1ccccc1)C(=O)N1CCC[C@H]1C(=O)N[C@H](C=O)CCCNC(=N)N.Cl

>  <Kass Plasmin / L/mol × 10^6>
27

$$$$
>  <compound>
CCC[C@](Cc1ccccc1)(NC(=O)OCC)C(=O)N1CCC[C@H]1C(=O)N[C@H](C=O)CCCNC(=N)N.Cl

>  <Kass Plasmin / L/mol × 10^6>
0.12

$$$$
>  <compound>
CC(=O)N[C@H](CC1CCCCC1)C(=O)N1CCC[C@H]1C(=O)N[C@H](C=O)CCCNC(=N)N.Cl [Example 72] (Ac-[dCha]-Pro-Arg-aldehyde)

>  <Kass Plasmin / L/mol × 10^6>
0.61

$$$$
>  <compound>
Cl.N=C(N)NCCC[C@@H](C=O)NC(=O)[C@@H]1CCCN1C(=O)[C@@H](Cc1ccccc1)NS(=O)(=O)c1nccs1

>  <Kass Plasmin / L/mol × 10^6>
3.4

$$$$
>  <compound>
CCS(=O)(=O)N[C@H](Cc1ccccc1)C(=O)N1CCC[C@@]1(C)C(=O)N[C@H](C=O)CCCNC(=N)N.Cl

>  <Kass Plasmin / L/mol × 10^6>
0.31

$$$$
>  <compound>
Cl.N=C(N)NCCC[C@@H](C=O)NC(=O)[C@@H]1CCCN1C(=O)[C@@H](Cc1ccccc1)NS(=O)(=O)c1ccc(F)cc1F

>  <Kass Plasmin / L/mol × 10^6>
25

$$$$
